assay: Guinea pig pharmacokinetics; type: in vivo, Hartley guinea pigs; conditions: female, Hartley, in vivo, sc, 100 mg/kg
Test readout: AUC(0-t) (ng·h/mL)
One number for each entry, in ng·h/mL.

For OC[C@@H]1[C@@H](O)[C@H](O)[C@@H](O)CN1CCCCCCCCC1CCCO1 (stereo partly shown) the molecule record lists AUC(0-t) as 23000

----------
test: in vitro; format: in vitro ADME; settings: human, Caco-2
Test readout: efflux ratio at 10 µM
Numbers only.

For OC[C@@H]1[C@@H](O)[C@H](O)[C@@H](O)CN1CCCCCCCCC1CCCO1 (stereo partly shown) the compound record lists efflux ratio at 10 µM as 4
